# TARGET OR SYSTEM: T1, human GLP-2 receptor (hGLP2-R) (human, UniProt O95838 1-553)
# T1 sequence (looked up): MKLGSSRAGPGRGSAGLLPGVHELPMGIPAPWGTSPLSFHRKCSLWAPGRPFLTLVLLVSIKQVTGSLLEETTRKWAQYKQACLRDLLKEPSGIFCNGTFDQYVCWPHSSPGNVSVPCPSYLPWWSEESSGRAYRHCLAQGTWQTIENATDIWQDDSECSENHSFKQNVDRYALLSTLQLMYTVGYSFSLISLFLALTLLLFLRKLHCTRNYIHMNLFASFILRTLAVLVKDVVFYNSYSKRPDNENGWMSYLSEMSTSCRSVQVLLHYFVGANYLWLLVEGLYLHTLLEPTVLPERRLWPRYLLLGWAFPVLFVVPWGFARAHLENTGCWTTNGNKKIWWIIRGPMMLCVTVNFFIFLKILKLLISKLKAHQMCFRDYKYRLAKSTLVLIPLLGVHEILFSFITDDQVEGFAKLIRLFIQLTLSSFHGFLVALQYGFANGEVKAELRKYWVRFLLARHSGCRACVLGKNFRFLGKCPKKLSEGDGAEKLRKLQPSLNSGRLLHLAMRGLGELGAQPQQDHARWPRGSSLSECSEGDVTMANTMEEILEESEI
# PROTOCOL: cell-based or functional assay
*1 amine or outer side, *2 acyl side, *3 side chain or, on linkers, in order; H or OH if unused. Side-chain parts run from the residue outwards. [ ]: non-standard residue; d: D form. The star is where a group is joined. C20 diacid = O=C(O)CCCCCCCCCCCCCCCCCCC(=O)*; C18 diacid = O=C(O)CCCCCCCCCCCCCCCCC(=O)*; γGlu = O=C(O)[C@H](CCC(=O)[*:2])N[*:1]; AEEA = NCCOCCOCC(=O)O; Aib = CC(C)(N)C(=O)O
EXPERIMENTAL ENDPOINT: EC50 GLP-2 (nM); cAMP response
Give the value in nM but do not write nM after it.

Example results:
>>> result_value("H-H[Aib]EGSFTSELATILEGK([AEEA-Lys-Glu-Lys-γGlu-C20 diacid])AARDFIAWLIEHKITD-OH [Compound 61]")
0.2
>>> result_value("H-H[Aib]EGTFSSELATILDK([AEEA-Lys-Glu-Lys-γGlu-C18 diacid])QAARDFIAWLIQHKITD-OH [Compound 47]")
0.048
>>> result_value("H-H[Aib]EGSFTSEK([AEEA-Lys-Glu-Lys-γGlu-C20 diacid])ATILDEQAARDFIAWLIEHKITD-OH [Compound 53]")
0.24
>>> result_value("H-H[Aib]EGSFTSELATILDAK([AEEA-Lys-Glu-Lys-γGlu-C20 diacid])AARDFIAWLIEHKITD-OH [Compound 62]")
0.15
>>> result_value("H-H[Aib]EGTFTSEK([AEEA-Lys-Glu-Lys-γGlu-C20 diacid])ATILDEQAARDFIAWLIEHKITD-OH [Compound 54]")
0.99
>>> result_value("H-H[Aib]EGTFSSELATILDK([AEEA-Lys-Glu-Lys-γGlu-C20 diacid])QAARDFIAWLIQHKITD-OH [Compound 48]")
0.054

What value of EC50 GLP-2 (nM); cAMP response has been recorded for this entry: H-H[Aib]EGTFSSELATILDK([AEEA-Lys-Glu-Lys-γGlu-C20 diacid])QAARDFIAWLIEHKITD-OH [Compound 50]
0.056

What value of EC50 GLP-2 (nM); cAMP response has been recorded for this entry: H-H[Aib]EGTFTSELATILDK([γGlu-C20 diacid])QAARDFIAWLIQHKITD-OH [Compound 41]
0.62

What value of EC50 GLP-2 (nM); cAMP response has been recorded for this entry: H-H[Aib]EGSFTSELATILDAK([AEEA-AEEA-Lys-Glu-Lys-γGlu-C20 diacid])AARDFIAWLIEHKITD-OH [Compound 63]
0.17

What value of EC50 GLP-2 (nM); cAMP response has been recorded for this entry: H-H[Aib]EGSFTSELATILEGK([AEEA-AEEA-γGlu-C20 diacid])AARDFIAWLIEHKITD-OH [Compound 44]
0.14

What value of EC50 GLP-2 (nM); cAMP response has been recorded for this entry: H-H[Aib]EGTFTSELATILDEQAAK([AEEA-AEEA-Lys-Glu-Lys-γGlu-C20 diacid])DFIAWLIEHKITD-OH [Compound 67]
0.22
